Each record here notes measured shrunken log2 fold change.
# Tested on: Escherichia coli TOP10;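 further: peptides expressed intracellularly from a pBAD plasmid library in pooled LB shake-flask culture, induced with 0.3% L-arabinose, DNA abundance read by NGS, three biological replicates, DESeq2 with apeglm shrinkage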
# assayText: shrunken log2 fold change of peptide-encoding DNA abundance (4.5 h post-induction vs induction); higher = less antimicrobial activity (less host growth inhibition)
# conditionParameters: time post-induction: 4.5 h; library: site-saturation at positions 5, 18, 19, 20
Could you respond with only the numeric value?

Example results:
| sequenceInput | assayTarget | shrunken log2 fold change |
| --- | --- | --- |
| RRIRIRPPRLPRPRPRPKRMPRP | Escherichia coli TOP10 | -0.518 |
| RRIRQRPPRLPRPRPRPSTIPRP | Escherichia coli TOP10 | -0.0567 |
| RRIRNRPPRLPRPRPRPLFPPRP | Escherichia coli TOP10 | 0.643 |

State its shrunken log2 fold change: `RRIRFRPPRLPRPRPRPNCHPRP`
-0.313

Write down shrunken log2 fold change measured for item `RRIRFRPPRLPRPRPRPIGHPRP`
-0.115

Output measured shrunken log2 fold change for this item: `RRIRHRPPRLPRPRPRPGAPPRP`
0.384

For the sequence `RRIRVRPPRLPRPRPRPFDYPRP` , give its measured shrunken log2 fold change value.
-0.221

Fill in reported shrunken log2 fold change for this entry: `RRIRHRPPRLPRPRPRPCLRPRP`
0.0119
